Listing of recorded LD50 by entry.
Test: Lethal dose is determined in mice (po)
Assay type: toxicity, organism-based
Conditions: mouse, in vivo
ATTRIBUTE MEASURED: LD50 (mg/kg)

MOLECULE	RESULT UNITS	QUALIFIER OPERATOR	NUMBER
CCN(CC)CC(=O)N(C)c1ccc(Sc2ccc(Cl)cc2)cc1	mg/kg	=	175
CC(C)N1CC(C(=O)N(C)c2ccc(Sc3ccccc3)cc2)C(=O)C1=O (stereo not drawn)	mg/kg	>	1000
CCN(CC)CC(=O)Nc1ccc(Sc2ccccc2)cc1	mg/kg	=	275
CCN(CC)CC(=O)N(C)c1ccc(Sc2ccccc2)cc1	mg/kg	=	140
CN(C(=O)C1CN(c2ccccc2)C(=O)C1=O)c1ccc(Sc2ccccc2)cc1 (stereo not drawn)	mg/kg	>	1000
CCN(CC)CC(=O)Nc1ccc(Sc2ccc(Cl)cc2)cc1	mg/kg	=	275
CCOC(=O)C1=C(Nc2ccc(Sc3ccccc3)cc2)C(=O)N(C(C)C)C1	mg/kg	>	1000
CCN(CC)CC(=O)Nc1ccccc1Sc1ccc(Cl)cc1	mg/kg	=	35
